Data origin: patent US10538498B2

Target: human recombinant HDAC1 (Homo sapiens, UniProt Q13547)
Sequence (Q13547 whole entry): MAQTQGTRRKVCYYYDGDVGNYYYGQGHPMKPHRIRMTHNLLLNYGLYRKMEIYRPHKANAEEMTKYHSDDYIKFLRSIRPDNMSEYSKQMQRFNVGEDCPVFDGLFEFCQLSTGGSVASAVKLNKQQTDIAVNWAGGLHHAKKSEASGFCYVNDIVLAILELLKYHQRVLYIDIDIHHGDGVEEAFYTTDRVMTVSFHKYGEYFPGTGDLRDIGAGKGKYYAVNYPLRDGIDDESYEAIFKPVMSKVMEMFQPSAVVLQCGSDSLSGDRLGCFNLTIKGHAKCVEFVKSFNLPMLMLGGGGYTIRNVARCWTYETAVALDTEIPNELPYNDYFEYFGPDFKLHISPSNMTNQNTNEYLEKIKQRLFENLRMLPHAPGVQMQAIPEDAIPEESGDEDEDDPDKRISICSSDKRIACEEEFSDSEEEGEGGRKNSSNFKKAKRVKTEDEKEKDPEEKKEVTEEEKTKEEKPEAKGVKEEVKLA
Test: HDAC1 enzyme activity inhibition assay (HDAC Fluorimetric Drug Discovery Kit)
Conditions: 0.3 μg enzyme, 10 μM substrate, 30° C., 60 minutes
pIC50: −log10 of the molar value.
readoutType: pIC50

Solved entries (count: 4):
querysmiles=CS(=O)(=O)N(Cc1ccc(-c2nnc(C(F)(F)F)o2)cc1F)c1ccc(C(F)(F)F)cc1 readouttype=pIC50 valuemeasured=4.58
querysmiles=O=S(=O)(C1CCOCC1)N(Cc1ccc(-c2nnc(C(F)(F)F)o2)cn1)c1ccccc1 readouttype=pIC50 valuemeasured=4.55
querysmiles=CCS(=O)(=O)N(Cc1ccc(-c2nnc(C(F)F)o2)cn1)c1ccc(C)c(Cl)c1 readouttype=pIC50 valuemeasured=4.22
querysmiles=CCS(=O)(=O)N(Cc1ccc(-c2nnc(C(F)F)o2)cn1)c1ccc(F)c(F)c1 readouttype=pIC50 valuemeasured=4.68

[I] CS(=O)(=O)N(Cc1ccc(-c2nnc(C(F)(F)F)o2)nn1)c1ccccc1
[II] Cc1cccc(N(Cc2ccc(-c3nnc(C(F)F)o3)cn2)S(=O)(=O)C2CCN(C3CCOCC3)CC2)c1
**Q:** Compare I and II by numeric pIC50 and name the larger one. # reply format: chosen label
**A:** I
(I: 4.51, II: 4.14)
